Taken from patent US8722903B2.

Please respond with reported pIC50 for every item in the list.
study_system: Recombinant human HSP90α (Homo sapiens, UniProt P07900)
assay_remarks: Radioligand filter binding test: competitive inhibition of [3H]17AAG binding to HSP90
measurement_context: [3H]17AAG 0.08 μM, HSP90 1.5 μg/assay, 22° C., 30 min
pIC50: −log10 of the molar value.

Field pIC50 (system: Recombinant human HSP90α (Homo sapiens, UniProt P07900)) for entry Cc1ccc(Cc2n[nH]c3cc(O)c(C(=O)N(C)c4ccccc4)cc23)cc1 = 6.00 to 8.00

Field pIC50 (system: Recombinant human HSP90α (Homo sapiens, UniProt P07900)) for entry COCCN(C)C(=O)c1cc2c(Cc3ccccc3)n[nH]c2cc1O = 5.00 to 6.00

Field pIC50 (system: Recombinant human HSP90α (Homo sapiens, UniProt P07900)) for entry CCCCN(C)C(=O)c1cc2c(Cc3ccccc3Cl)n[nH]c2cc1O = 5.00 to 6.00

Field pIC50 (system: Recombinant human HSP90α (Homo sapiens, UniProt P07900)) for entry CN(Cc1ccccc1)C(=O)c1cc2c(Cc3cccc(Cl)c3)n[nH]c2cc1O = 6.00 to 8.00

Field pIC50 (system: Recombinant human HSP90α (Homo sapiens, UniProt P07900)) for entry Cc1cccc(Cc2n[nH]c3cc(O)c(C(=O)N(C)Cc4ccc5c(c4)OCCO5)cc23)c1 = 6.00 to 8.00

Field pIC50 (system: Recombinant human HSP90α (Homo sapiens, UniProt P07900)) for entry COc1ccc(N(C)C(=O)c2cc3c(Cc4cccc(OC)c4)n[nH]c3cc2O)cc1 = 6.00 to 8.00

----------
study_system: Recombinant human HSP90α (Homo sapiens, UniProt P07900)
assay_remarks: Radioligand filter binding test: competitive inhibition of [3H]17AAG binding to HSP90
measurement_context: [3H]17AAG 0.08 μM, HSP90 1.5 μg/assay, 22° C., 30 min
endpoint: IC50

Reported IC50 ( COc1ccc(N(C)C(=O)c2cc3c(Cc4cccc(C)c4)n[nH]c3cc2O)cc1OC ) = 10 to 1000 nM

Reported IC50 ( CC(=O)N1CCc2cc(N(C)C(=O)c3cc4c(Cc5cccc(C)c5)n[nH]c4cc3O)ccc21 ) = 10 to 1000 nM

Reported IC50 ( CN(Cc1ccccc1)C(=O)c1cc2c(Cc3ccccc3Cl)n[nH]c2cc1O ) = 1000 to 10000 nM

Reported IC50 ( COc1ccc(Cl)cc1CN(C)C(=O)c1cc2c(Cc3ccccc3)n[nH]c2cc1O ) = 1000 to 10000 nM

Reported IC50 ( CCCc1n[nH]c2cc(O)c(C(=O)N(C)c3ccc(OC)c(OC)c3)cc12 ) = 10 to 1000 nM

Reported IC50 ( Cc1ccc(N(C)C(=O)c2cc3c(CC4CCCC4)n[nH]c3cc2O)cc1 ) = 10 to 1000 nM

Reported IC50 ( CCCN(C)C(=O)c1cc2c(Cc3ccccc3)n[nH]c2cc1O ) = 1000 to 10000 nM

Reported IC50 ( CCCCN(C)C(=O)c1cc2c(Cc3ccc(C)cc3)n[nH]c2cc1O ) = 1000 to 10000 nM

Reported IC50 ( COc1cccc(N(C)C(=O)c2cc3c(CC4CCCC4)n[nH]c3cc2O)c1 ) = 10 to 1000 nM

Reported IC50 ( CCCc1n[nH]c2cc(O)c(C(=O)N(C)Cc3ccccc3)cc12 ) = 10 to 1000 nM

Reported IC50 ( Cc1ccccc1Cc1n[nH]c2cc(O)c(C(=O)N(C)Cc3ccccc3)cc12 ) = 1000 to 10000 nM

Reported IC50 ( CCCc1n[nH]c2cc(O)c(C(=O)N(C)c3ccc(CNS(C)(=O)=O)cc3)cc12 ) = 10 to 1000 nM

Reported IC50 ( CCCc1n[nH]c2cc(O)c(C(=O)N(C)c3ccc4c(c3)OCO4)cc12 ) = 10 to 1000 nM

Reported IC50 ( COCCN(C)C(=O)c1cc2c(Cc3ccccc3Cl)n[nH]c2cc1O ) = > 10000 nM

Reported IC50 ( COc1cc(N(C)C(=O)c2cc3c(Cc4cccc(C)c4)n[nH]c3cc2O)ccc1N1CCN(C)CC1 ) = 10 to 1000 nM

Reported IC50 ( CCCN(C)C(=O)c1cc2c(Cc3ccc(C)c(C)c3)n[nH]c2cc1O ) = 1000 to 10000 nM

Reported IC50 ( COc1cccc(CN(C)C(=O)c2cc3c(Cc4ccccc4)n[nH]c3cc2O)c1OC ) = 10 to 1000 nM

Reported IC50 ( CN(Cc1cccc(Cl)c1)C(=O)c1cc2c(Cc3ccccc3)n[nH]c2cc1O ) = 1000 to 10000 nM

Reported IC50 ( CCc1ccc(Cc2n[nH]c3cc(O)c(C(=O)N(C)Cc4ccccc4)cc23)cc1 ) = 1000 to 10000 nM

Reported IC50 ( CCCCN(C)C(=O)c1cc2c(Cc3ccccc3C)n[nH]c2cc1O ) = 1000 to 10000 nM

Reported IC50 ( CN(Cc1cccc2c1OCO2)C(=O)c1cc2c(Cc3ccccc3)n[nH]c2cc1O ) = 1000 to 10000 nM

Reported IC50 ( COc1cccc(Cc2n[nH]c3cc(O)c(C(=O)N(C)c4ccc(CNS(C)(=O)=O)cc4)cc23)c1 ) = 10 to 1000 nM

Reported IC50 ( COc1ccc(C)cc1CN(C)C(=O)c1cc2c(Cc3ccccc3)n[nH]c2cc1O ) = 1000 to 10000 nM

Reported IC50 ( COCCN(C)C(=O)c1cc2c(Cc3cccc(C)c3)n[nH]c2cc1O ) = 1000 to 10000 nM

Reported IC50 ( CCCCN(C)C(=O)c1cc2c(Cc3cccc(Cl)c3)n[nH]c2cc1O ) = 10 to 1000 nM

Reported IC50 ( CCCN(C)C(=O)c1cc2c(CCc3ccccc3)n[nH]c2cc1O ) = 1000 to 10000 nM

Reported IC50 ( CN(Cc1cccc(Br)c1)C(=O)c1cc2c(Cc3ccccc3)n[nH]c2cc1O ) = 1000 to 10000 nM

Reported IC50 ( CN(C(=O)c1cc2c(CC3CCCC3)n[nH]c2cc1O)c1ccc2c(c1)OCO2 ) = 10 to 1000 nM

Reported IC50 ( CCCN(C)C(=O)c1cc2c(Cc3ccccc3Cl)n[nH]c2cc1O ) = 1000 to 10000 nM

Reported IC50 ( Cc1cccc(Cc2n[nH]c3cc(O)c(C(=O)N(C)c4ccc(CN5CCOCC5)cc4)cc23)c1 ) = 10 to 1000 nM

Reported IC50 ( Cc1cccc(Cc2n[nH]c3cc(O)c(C(=O)N(C)c4cccc(OC(F)(F)F)c4)cc23)c1 ) = 10 to 1000 nM

Reported IC50 ( CCCN(C)C(=O)c1cc2c(Cc3cccc(Cl)c3)n[nH]c2cc1O ) = 10 to 1000 nM

Reported IC50 ( CCCCN(C)C(=O)c1cc2c(Cc3cccc(C)c3)n[nH]c2cc1O ) = 10 to 1000 nM

Reported IC50 ( COCCN(C)C(=O)c1cc2c(Cc3cccc(Cl)c3)n[nH]c2cc1O ) = 1000 to 10000 nM

----------
Please respond with reported pIC50 for every item in the list.
study_system: Recombinant human HSP90α (Homo sapiens)
assay_remarks: Radioligand filter binding test: competitive inhibition of [3H]17AAG binding to HSP90
measurement_context: [3H]17AAG 0.08 μM, HSP90 1.5 μg/assay, 22° C., 30 min
pIC50: −log10 of the molar value.

Reported pIC50 ( CN(Cc1ccccc1)C(=O)c1cc2c(CCc3ccccc3)n[nH]c2cc1O ) = 6.00 to 8.00

Reported pIC50 ( CCc1ccc(CN(C)C(=O)c2cc3c(Cc4ccccc4)n[nH]c3cc2O)cc1 ) = 6.00 to 8.00

Reported pIC50 ( COCCN(C)C(=O)c1cc2c(Cc3ccccc3C)n[nH]c2cc1O ) = < 5.00

Reported pIC50 ( Cc1cccc(Cc2n[nH]c3cc(O)c(C(=O)N(C)C4CCCCC4)cc23)c1 ) = 5.00 to 6.00

Reported pIC50 ( CCCN(C)C(=O)c1cc2c(Cc3cc(C)cc(F)c3)n[nH]c2cc1O ) = 5.00 to 6.00

Reported pIC50 ( CCCN(C)C(=O)c1cc2c(Cc3cccc(C)c3)n[nH]c2cc1O ) = 5.00 to 6.00

Reported pIC50 ( CN(Cc1ccccc1)C(=O)c1cc2c(Cc3ccccc3)n[nH]c2cc1O ) = 6.00 to 8.00

Reported pIC50 ( CN(Cc1cccc(C(F)(F)F)c1)C(=O)c1cc2c(Cc3ccccc3)n[nH]c2cc1O ) = 5.00 to 6.00
